- STUDY SYSTEM: human Phosphoinositide 3-kinase alpha (PI3Ka), PIK3CA (gene 5290) (UniProt P42336)
- Sequence (P42336 whole entry, looked up): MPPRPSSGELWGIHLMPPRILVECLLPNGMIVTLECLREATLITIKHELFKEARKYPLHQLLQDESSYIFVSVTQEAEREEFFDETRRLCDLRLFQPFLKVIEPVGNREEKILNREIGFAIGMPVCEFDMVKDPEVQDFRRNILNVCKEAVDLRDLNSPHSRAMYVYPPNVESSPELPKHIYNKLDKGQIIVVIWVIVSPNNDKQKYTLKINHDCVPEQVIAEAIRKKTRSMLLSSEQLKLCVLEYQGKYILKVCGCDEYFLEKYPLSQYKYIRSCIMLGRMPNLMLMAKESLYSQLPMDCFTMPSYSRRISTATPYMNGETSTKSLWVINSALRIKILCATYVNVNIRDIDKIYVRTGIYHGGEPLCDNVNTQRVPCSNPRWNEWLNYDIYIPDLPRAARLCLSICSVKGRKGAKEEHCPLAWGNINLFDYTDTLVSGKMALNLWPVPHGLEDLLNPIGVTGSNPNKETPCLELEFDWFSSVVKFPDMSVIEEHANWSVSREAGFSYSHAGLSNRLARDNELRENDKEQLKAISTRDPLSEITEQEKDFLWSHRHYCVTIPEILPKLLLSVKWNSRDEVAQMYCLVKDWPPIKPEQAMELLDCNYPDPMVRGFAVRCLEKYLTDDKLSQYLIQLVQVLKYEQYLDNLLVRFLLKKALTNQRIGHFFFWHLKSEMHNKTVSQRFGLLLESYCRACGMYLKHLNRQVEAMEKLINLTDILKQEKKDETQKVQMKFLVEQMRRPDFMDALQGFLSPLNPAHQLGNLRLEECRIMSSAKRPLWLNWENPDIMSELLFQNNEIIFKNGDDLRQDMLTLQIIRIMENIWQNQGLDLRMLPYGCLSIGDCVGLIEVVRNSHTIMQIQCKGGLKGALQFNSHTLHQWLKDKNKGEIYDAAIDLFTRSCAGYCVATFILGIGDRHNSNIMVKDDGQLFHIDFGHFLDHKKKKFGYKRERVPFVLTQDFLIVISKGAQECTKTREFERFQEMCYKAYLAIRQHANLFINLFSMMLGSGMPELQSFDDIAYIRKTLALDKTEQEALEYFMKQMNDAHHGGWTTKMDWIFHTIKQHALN
- ASSAY EXPLANATION: NVS_ENZ_hPI3Ka: NovaScreen (NVS) Enzymatic Assay for human Phosphoinositide 3-kinase alpha (PI3Ka) (AID 2283196)
Results filed as inconclusive are left out. Activity calls are given as the source filed them. The calls were made as follows: active = hit-call score of the fitted dose curve at least 0.9, where 1 is the maximum; inconclusive = response in the unintended direction; inactive = score below 0.9.
Labels: y for active, n for inactive

COMPOUND | ASSIGNED CATEGORY
CCC(C)(C#N)N=NC(C)(C#N)CC (stereo unspecified) | n
C=CC(=O)NC(C)(C)CC(C)=O | n
Nc1c(Oc2ccccc2)cc(O)c2c1C(=O)c1ccccc1C2=O | y
CC(C)[N+](=O)[O-] | n
O=C1c2ccccc2C(=O)C1C(=O)C(c1ccccc1)c1ccc(Cl)cc1 (stereo unspecified) | y
Oc1ccc(Cc2ccc(O)cc2)cc1 | n
CC[N+](CC)(CC)CC | n
CCOC(=O)CCN(SN(C)C(=O)Oc1cccc2c1OC(C)(C)C2)C(C)C | n
C=CCCl | n
O=c1oc2ccccc2c(O)c1C(CC(O)c1ccc(-c2ccc(Br)cc2)cc1)c1ccccc1 (stereo unspecified) | y
CCCCCCCCCCCCc1cccc(S(=O)(=O)O)c1 | y

* * *

- ASSAY EXPLANATION: ATG_PXRE_CIS: Attagene CIS-FACTORIAL HepG2 Assay for human Pregnane X Receptor Element (PXRE) (AID 2282957)
- MEASUREMENT SETUP: HepG2 Attagene CIS-FACTORIAL PXRE reporter, mRNA; actives raise or lower the signal
Activity calls are given as the source filed them. How the source made its calls: active means hit-call score of the fitted dose curve at least 0.9, where 1 is the maximum; inactive means score below 0.9.
Labels: active, inactive

COMPOUND | ASSIGNED CATEGORY
CCOP(=S)(OCC)OP(=S)(OCC)OCC | active
O=C(O)COc1ccc(Cl)cc1 | inactive
Cc1cc(C(C)(C)c2ccc(O)c(C)c2)ccc1O | active
ClCc1ccccc1CCl | active
OC(Cc1ccccc1Cl)(Cn1cncn1)C1(Cl)CC1 (stereo not drawn) | active
O=C=Nc1ccc(Cl)cc1 | inactive
CC(C)[C@H](C(=O)OC(C#N)c1cccc(Oc2ccccc2)c1)c1ccc(OC(F)F)cc1 (stereo partly drawn) | active
CCOCn1c(-c2ccc(Cl)cc2)c(C#N)c(Br)c1C(F)(F)F | active
CC(c1ccccc1)(c1ccc(O)cc1)c1ccc(O)cc1 | active
BrCC(Br)c1ccccc1 (stereo not drawn) | active
O=S(=O)(C(Cl)(Cl)Cl)C(Cl)(Cl)Cl | active
CC(C)(C)c1cc([N+](=O)[O-])cc(C(C)(C)C)c1O | active
O=[N+]([O-])c1c2ccccc2cc2ccccc12 | active

* * *

- ASSAY EXPLANATION: CEETOX_H295R_CORTIC: CeeTox H295R High-throughput Steroidogenesis Assay for Corticosterone (CORTIC) (AID 2283437);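 also: corticosterone secreted into medium quantified by mass spectrometry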;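 as to AC50: human H295R adrenal cells prestimulated with forskolin before chemical exposure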
- MEASUREMENT SETUP: actives raise or lower the signal
The source made the active and inactive calls. The calls were made as follows: active = hit-call score of the fitted dose curve at least 0.9, where 1 is the maximum; inactive = score below 0.9.

MOLECULE | AC50
OC(Cc1ccccc1Cl)(Cn1[nH]cnc1=S)C1(Cl)CC1 (stereo not given) | inactive
OC(Cc1ccccc1Cl)(Cn1cncn1)C1(Cl)CC1 (stereo not given) | 6.94 µM (active)
COc1ccc(N)cc1 | inactive
CCOP(=S)(OCC)O/N=C(\C#N)c1ccccc1 | 13.8 µM (active)
CCOCn1c(-c2ccc(Cl)cc2)c(C#N)c(Br)c1C(F)(F)F | inactive
CC(C)(COCC1CO1)COCC1CO1 (stereo not given) | inactive
CCCCCCCCCCCCN(C)C | inactive
CCC[CH2][Sn]([Cl])([Cl])[CH2]CCC | inactive
CC(C)=CC1C(C(=O)OCc2cccc(Oc3ccccc3)c2)C1(C)C (stereo not given) | inactive
O=S1OC[C@@H]2[C@H](CO1)[C@]1(Cl)C(Cl)=C(Cl)[C@@]2(Cl)C1(Cl)Cl (stereo not given in full) | inactive

* * *

- ASSAY EXPLANATION: ATG_BRE_CIS: Attagene CIS-FACTORIAL HepG2 Assay for human Bone Morphogenetic Protein (BMP) Response Element (BRE) (AID 2282933)
- MEASUREMENT SETUP: HepG2 BMP response element reporter, Attagene transcription factor profiling; actives raise or lower the signal
- Experimental: ATG_CIS is a cell-based, multiplexed-readout assay that uses HepG2, a human liver cell line, with measurements taken at 24 hours after chemical dosing in a 24-well plate.ATG_BRE_CIS is one of 52 assay component(s) measured or calculated from the ATG_CIS assay. […] This assay endpoint, ATG_BRE_CIS, was analyzed with bidirectional fitting relative to DMSO as the negative control and baseline of activity. […]
Activity calls are given as the source filed them. Rule for the calls: active = hit-call score of the fitted dose curve at least 0.9, where 1 is the maximum; inactive = score below 0.9.

MOLECULE | AC50
CCOP(=O)(OCC)OC(=CCl)c1ccc(Cl)cc1Cl | inactive
CCOC(=O)c1ccccc1S(=O)(=O)NC(=O)Nc1nc(Cl)cc(OC)n1 | inactive
OC(Cc1ccccc1Cl)(Cn1cncn1)C1(Cl)CC1 (stereo unspecified) | inactive
Nc1c(Oc2ccccc2)cc(O)c2c1C(=O)c1ccccc1C2=O | 13.2 µM (active)
Oc1c(Br)cc(Br)cc1Br | 126 µM (active)
Cc1c([N+](=O)[O-])c(C)c([N+](=O)[O-])c(C(C)(C)C)c1[N+](=O)[O-] | inactive

* * *

- STUDY SYSTEM: Transcriptional activator Myb (Homo sapiens) (UniProt P10242)
- Sequence (P10242 whole entry, looked up): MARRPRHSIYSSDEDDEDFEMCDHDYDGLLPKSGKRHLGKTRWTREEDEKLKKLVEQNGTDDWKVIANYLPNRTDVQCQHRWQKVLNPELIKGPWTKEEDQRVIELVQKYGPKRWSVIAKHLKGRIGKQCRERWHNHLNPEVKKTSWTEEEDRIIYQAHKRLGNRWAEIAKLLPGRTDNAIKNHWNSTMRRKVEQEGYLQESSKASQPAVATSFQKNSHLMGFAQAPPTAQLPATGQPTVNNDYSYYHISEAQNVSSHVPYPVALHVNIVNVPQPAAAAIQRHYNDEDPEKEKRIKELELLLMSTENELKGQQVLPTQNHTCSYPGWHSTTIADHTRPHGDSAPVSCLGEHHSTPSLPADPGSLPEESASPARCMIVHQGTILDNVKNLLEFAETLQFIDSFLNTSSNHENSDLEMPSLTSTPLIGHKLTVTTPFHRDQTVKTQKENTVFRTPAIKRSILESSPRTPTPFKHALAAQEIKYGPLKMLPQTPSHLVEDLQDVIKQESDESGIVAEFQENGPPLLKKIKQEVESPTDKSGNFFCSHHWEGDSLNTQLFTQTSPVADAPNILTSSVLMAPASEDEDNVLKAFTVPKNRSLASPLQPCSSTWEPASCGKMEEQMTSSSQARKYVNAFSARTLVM
- ASSAY EXPLANATION: ATG_Myb_CIS: Attagene CIS-FACTORIAL HepG2 Assay for human Myeloblastosis (Myb) Proto-Oncogene Transcription Factor (AID 2282986)
- MEASUREMENT SETUP: HepG2 Attagene CIS-FACTORIAL Myb reporter transcription; actives raise or lower the signal
Activity calls are given as the source filed them. Rule for the calls: active = hit-call score of the fitted dose curve at least 0.9, where 1 is the maximum; inactive = score below 0.9.
Labels: active, inactive

MOLECULE | ASSIGNED CATEGORY
c1ccc2c(c1)Oc1ccccc1O2 | inactive
O=C(NC(=O)c1c(F)cccc1F)Nc1cc(Cl)c(F)c(Cl)c1F | inactive
C[CH2][Hg][S]c1ccccc1C(=O)O | active
CC(C)(c1ccc(O)c(-c2ccccc2)c1)c1ccc(O)c(-c2ccccc2)c1 | inactive
CCCCCCCCCCBr | inactive
O=CCCl | inactive
CCOC(=O)C(SP(=S)(OC)OC)c1ccccc1 (stereo not drawn) | inactive
C=CCc1ccccc1O | inactive
CC(C)O.CC(C)O.OCCN(CCO)CCO.OCCN(CCO)CCO.[Ti] | inactive
O=C(NC(=O)c1c(F)cccc1F)Nc1cc(Cl)c(Oc2ncc(C(F)(F)F)cc2Cl)c(Cl)c1 | inactive
Clc1cc(C(Cl)(Cl)Cl)cnc1Cl | inactive
CCCCC(CC)C(=O)Cl (stereo not drawn) | inactive
O=C1C=CC(=O)c2ccccc21 | inactive

* * *

- Read-out: TIMP metallopeptidase inhibitor 1 (TIMP1), TIMP1 (gene 7076)
- ASSAY EXPLANATION: BSK_MyoF_TIMP1: BioMAP Diversity Plus: MyoF Assay for TIMP metallopeptidase inhibitor 1 (TIMP1) Biomarker Activity (AID 2284269)
- MEASUREMENT SETUP: primary human lung fibroblasts
Activity calls are given as the source filed them. How the source made its calls: active means hit-call score of the fitted dose curve at least 0.9, where 1 is the maximum; inactive means score below 0.9.
ASSAY ENDPOINT: AC50

COMPOUND | RESULT
O=C(O)COc1cc(Cl)c(Cl)cc1Cl | inactive
COCC(=O)N(c1c(C)cccc1C)[C@H](C)C(=O)OC | inactive
Cc1ccc(OP(=O)(Oc2ccc(C)cc2C)Oc2ccc(C)cc2C)c(C)c1 | inactive
Cc1cc(C(C)(C)c2ccc(O)c(C)c2)ccc1O | inactive
CC1(C)[C@H](C(=O)O[C@H](C#N)c2cccc(Oc3ccccc3)c2)[C@@H]1/C=C(\Cl)C(F)(F)F | inactive
C=CC(Cl)CCl (configuration not stated) | 61 nM (active)
NC(=O)CCl | inactive
Nc1c(Oc2ccccc2)cc(O)c2c1C(=O)c1ccccc1C2=O | inactive
CC(C)(C)c1cc([N+](=O)[O-])cc(C(C)(C)C)c1O | inactive
OC(Cc1ccccc1Cl)(Cn1[nH]cnc1=S)C1(Cl)CC1 (configuration not stated) | inactive
O=S(=O)(c1ccc(Cl)cc1)c1cc(Cl)c(Cl)cc1Cl | inactive
CCOC(=O)CC(=O)CCl | inactive
CCOC(=O)C(SP(=S)(OC)OC)c1ccccc1 (configuration not stated) | inactive
O=[N+]([O-])c1cccc2ccccc12 | inactive
O=c1oc2ccccc2c(O)c1C(CC(O)c1ccc(-c2ccc(Br)cc2)cc1)c1ccccc1 (configuration not stated) | 7830 nM (active)
Oc1cccc(-c2ccccc2)c1 | inactive
Oc1ccc(Cc2ccc(O)cc2)cc1 | inactive
N#CCCC(Br)(C#N)CBr (configuration not stated) | 20000 nM (active)
O=S(=O)(C(Cl)(Cl)Cl)C(Cl)(Cl)Cl | 2930 nM (active)
CCOP(=O)(OCC)OC(=CCl)c1ccc(Cl)cc1Cl | inactive
Oc1c(Br)cc(Br)cc1Br | inactive
CCN(CC)C(=O)C(Cl)=C(C)OP(=O)(OC)OC | inactive
Cc1cc(Cl)ccc1OC(C)C(=O)O (configuration not stated) | inactive
O=C(CCl)NCO | inactive
Cc1ccccc1OP(=O)(Oc1ccccc1)Oc1ccccc1 | 18.7 nM (active)
OC(Cc1ccccc1Cl)(Cn1cncn1)C1(Cl)CC1 (configuration not stated) | inactive
CC(C=O)Cc1ccc2c(c1)OCO2 (configuration not stated) | inactive
